# TARGET: huPD-L1 (Homo sapiens, UniProt Q9NZQ7)
# Sequence (Q9NZQ7 19-290): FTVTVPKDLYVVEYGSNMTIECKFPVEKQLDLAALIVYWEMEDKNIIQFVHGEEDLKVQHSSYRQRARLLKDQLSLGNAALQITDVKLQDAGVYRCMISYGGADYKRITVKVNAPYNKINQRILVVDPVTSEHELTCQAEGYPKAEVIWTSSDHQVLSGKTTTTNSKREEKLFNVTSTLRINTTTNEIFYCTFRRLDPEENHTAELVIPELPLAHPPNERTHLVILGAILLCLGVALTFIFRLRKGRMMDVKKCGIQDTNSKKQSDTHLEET
# ASSAY_OVERVIEW: Flow binding to CHO cells stably expressing PD-L1
# Set-up: huCTLA4 and huPD-L1, full-length mammalian surface expression constructs were generated; expressed in transfected cells; host or cells: CHO cells, lentiviral transduction, sorted to >98% purity
# CONDITION_LABEL: Table E10; 33.3 nM; relative to CD80 WT IgV-Fc
QUANTITY_MEASURED: PD-L1 Fold change to WT CD80
I only need the number, thanks.

{"columns": ["MOLECULE", "PD-L1 Fold change to WT CD80"],
 "data": [
  ["E35D/T41S/N48T (protein) VIHVTKEVKEVATLSCGHNVSVEELAQTRIYWQKDKKMVLSMMSGDMTIWPEYKNRTIFDITNNLSIVILALRPSDEGTYECVVLKYEKDAFKREHLAEVTLSVKAD", 31.2],
  ["E35D/M47L/A71G/L85M (protein) VIHVTKEVKEVATLSCGHNVSVEELAQTRIYWQKDKKMVLTMMSGDLNIWPEYKNRTIFDITNNLSIVILGLRPSDEGTYECVVMKYEKDAFKREHLAEVTLSVKAD", 118.2],
  ["M43I/M47L/A71G (protein) VIHVTKEVKEVATLSCGHNVSVEELAQTRIYWQKEKKMVLTMISGDLNIWPEYKNRTIFDITNNLSIVILGLRPSDEGTYECVVLKYEKDAFKREHLAEVTLSVKAD", 110.4]
]}

# context switch: different molecule, same PD-L1 Fold change to WT CD80
Tell me measured PD-L1 Fold change to WT CD80 for M47I/A71G (protein) VIHVTKEVKEVATLSCGHNVSVEELAQTRIYWQKEKKMVLTMMSGDINIWPEYKNRTIFDITNNLSIVILGLRPSDEGTYECVVLKYEKDAFKREHLAEVTLSVKAD please.
72.5

The measurements presented in this section are drawn from patent US20220177587A1.
